Quick reference: TGI of the listed items.
Test system: CCRF-CEM leukemia
Test: NCI tumour cell line growth inhibition, 48 h

[
  {
    "Compound": "C=C(Cl)C(Br)(CCl)CCC(Cl)C(C)C (stereo not drawn) (tested in a mixture with another compound)",
    "Assay result": "> 100 µM"
  }
]

q: What measured TGI goes with CN(C)CC1CCC(CN(C)C)C1=NO (stereo not drawn) ?
a: > 100 µM

q: What measured TGI goes with O=C(O)c1cc2c3c(c1)[C@H]1C=CC[C@H]1CN3CC1CC=CC21 (stereo partly drawn) ?
a: > 100 µM

----------
Test system: M19-MEL melanoma
Assay: NCI tumour cell line growth inhibition, 48 h
Quick reference: TGI of the listed items.

Please review the following examples before continuing.
[
  {
    "Compound": "CC(C)[C@H](COC(C)(C)C)N=CN1CSc2ccccc21",
    "TGI": "> 100 µM"
  },
  {
    "Compound": "C/C(=C\\c1ccccc1)C(O)S(=O)(=O)O (stereo not drawn)",
    "TGI": "> 100 µM"
  }
]

// moving on: another record for TGI
q: What measured TGI goes with CCCCC/C=C1\CCC(CN2CCOCC2)C1=O (stereo not drawn) ?
a: > 54.8 µM

----------
System: HL-60(TB) leukemia
Experiment: NCI tumour cell line growth inhibition, 48 h
Given measured TGI, output satisfied if it is greater than or equal to 7 µM and not satisfied if not.

Examples from the recorded data:
[
  {
    "Compound": "COc1cc2c(cc1OC)C(C1(O)CCCCC1)NCC2 (stereo unspecified)",
    "Study target": "HL-60(TB) leukemia",
    "Group label": "satisfied"
  },
  {
    "Compound": "COc1cc(C(C)c2cc3c(cc2OCCOCCOc2cc4c(cc2C(C)c2cc(OC)c(OC)c(OC)c2)OCO4)OCO3)cc(OC)c1OC (stereo unspecified)",
    "Study target": "HL-60(TB) leukemia",
    "Group label": "satisfied"
  },
  {
    "Compound": "Cc1ccc(S(=O)(=O)NC(C)C(=O)O)cc1 (stereo unspecified)",
    "Study target": "HL-60(TB) leukemia",
    "Group label": "satisfied"
  },
  {
    "Compound": "Nc1nc(Cl)cc(NCCCCO)n1",
    "Study target": "HL-60(TB) leukemia",
    "Group label": "satisfied"
  },
  {
    "Compound": "Fc1ccc(C(OCCN2CC3CC2CN3CCCc2ccccc2)c2ccc(F)cc2)cc1 (stereo unspecified)",
    "Study target": "HL-60(TB) leukemia",
    "Group label": "satisfied"
  },
  {
    "Compound": "CCOC(=O)NC(=O)c1cn(-c2ccc(CCOC(=O)CCCCCCCCC(=O)OCCc3ccc(-n4cc(C(=O)NC(=O)OCC)c(=O)[nH]c4=O)cc3)cc2)c(=O)[nH]c1=O",
    "Study target": "HL-60(TB) leukemia",
    "Group label": "satisfied"
  },
  {
    "Compound": "CC1(C)[C@@H]2C[C@H]1C(Cc1ccccc1C[C@H]1c3cc(-c4ccccn4)ncc3[C@H]3C[C@@H]1C3(C)C)c1cc(-c3ccccn3)ncc12 (stereo partly specified)",
    "Study target": "HL-60(TB) leukemia",
    "Group label": "not satisfied"
  },
  {
    "Compound": "Cc1c(Cl)c(S(N)(=O)=O)cc(S(N)(=O)=O)c1NC(=O)c1ccc(Cl)cc1",
    "Study target": "HL-60(TB) leukemia",
    "Group label": "satisfied"
  }
]

q: Check the entry S=C1SC2(CCCCCC2)NC2=C1CCCCC2 : does TGI equal or exceed 7 µM?
a: satisfied

q: Check the entry CN(C)CCCNC(=O)c1cc(NC(=O)CCCn2c3ccccc3c3ccccc32)cn1C : does TGI equal or exceed 7 µM?
a: satisfied

q: Check the entry CCCC/C=C1\CCC(CN2CCOCC2)C1=O (stereo unspecified) : does TGI equal or exceed 7 µM?
a: not satisfied

q: Check the entry COc1ccc(Oc2nc3cc(C(F)(F)F)ccc3nc2C(C)C)cc1 : does TGI equal or exceed 7 µM?
a: satisfied

q: Check the entry OC(CCN1CCN(CCOC(c2ccc(F)cc2)c2ccc(F)cc2)CC1)c1ccccc1 (stereo unspecified) : does TGI equal or exceed 7 µM?
a: satisfied

q: Check the entry O=C1CC(CC(O)C(O)CO)CC(=O)N1 (stereo unspecified) : does TGI equal or exceed 7 µM?
a: satisfied

q: Check the entry N#C/C(=C/c1cccs1)c1cccs1 : does TGI equal or exceed 7 µM?
a: satisfied

q: Check the entry O=C(CCNC(=O)OCc1ccccc1)OCCCNC(=O)OCc1ccccc1 : does TGI equal or exceed 7 µM?
a: satisfied

q: Check the entry CO/N=C(\COc1ccc2c(=O)cc(-c3ccccc3)oc2c1)c1ccc(OC)cc1 : does TGI equal or exceed 7 µM?
a: satisfied

q: Check the entry CC(=O)OC1CC(C)c2c1ncnc2N1CCN(C(=O)OC(C)(C)C)CC1 (stereo unspecified) : does TGI equal or exceed 7 µM?
a: satisfied

q: Check the entry COc1cc(/C=C\c2cc(/C=C\c3ccc(O)c(OC)c3)n(C(=O)Nc3ccc(C(F)(F)F)cc3)n2)ccc1O : does TGI equal or exceed 7 µM?
a: not satisfied

q: Check the entry COc1ccccc1NC(=O)N/C(N)=N/c1nc2ccccc2s1 : does TGI equal or exceed 7 µM?
a: not satisfied

q: Check the entry CN[C@@H]1[C@H](O)[C@H](NC)[C@H]2O[C@@]3(O)C(=O)C[C@@H](C)O[C@H]3O[C@@H]2[C@H]1O : does TGI equal or exceed 7 µM?
a: satisfied

q: Check the entry C1CSCCSS[C@@H]2CCCCC2SC1 (stereo partly specified) : does TGI equal or exceed 7 µM?
a: satisfied

q: Check the entry COc1ccc(OC)c(-c2cn3nc(-c4c[nH]c5ccc(Br)cc45)sc3n2)c1 : does TGI equal or exceed 7 µM?
a: satisfied

q: Check the entry O=C(N/N=C/c1cc(Br)cc(Br)c1[O-])c1ccccc1O.O=C(N/N=C/c1cc(Br)cc(Br)c1[O-])c1ccccc1O.[Cl-].[Fe+3] : does TGI equal or exceed 7 µM?
a: not satisfied

q: Check the entry CCCCn1c(=O)c(/C=C/C(=O)/C=C/c2ccc(O)c(OC)c2)cc2ccc(Cl)cc21 : does TGI equal or exceed 7 µM?
a: satisfied

----------
Quick reference: TGI of the listed items.
Tested on: SK-MEL-2 melanoma
Assay: NCI tumour cell line growth inhibition, 48 h

Please review the following examples before continuing.
[
  {
    "Compound": "Cc1ccccc1N=Nc1ccc(N=Nc2c(O)ccc3cc(S(=O)(=O)O)cc(S(=O)(=O)O)c23)c(C)c1",
    "TGI": "> 100 µM"
  },
  {
    "Compound": "CC(C)(C)OC(=O)N(CCCn1c2c(c3ccccc3c1=O)C(=O)c1ccccc1-2)CCN(CCCn1c2c(c3ccccc3c1=O)C(=O)c1ccccc1-2)C(=O)OC(C)(C)C",
    "TGI": "> 50 µM"
  },
  {
    "Compound": "COc1cc2c3c(n(CCCn4cccn4)c(=O)c2cc1OC)-c1cc2c(cc1C3=O)OCO2",
    "TGI": "> 100 µM"
  },
  {
    "Compound": "COc1ccc2c3c([nH]c2c1[N+](=O)[O-])C(C)N(C(=O)/C=C/c1ccccc1)CC3 (stereo not given)",
    "TGI": "> 100 µM"
  },
  {
    "Compound": "Cn1cc(C=C(C#N)C#N)c(=O)n(C)c1=O",
    "TGI": "> 100 µM"
  },
  {
    "Compound": "CC(=O)OC1C(O)COC(Oc2c(C)c3c4c(c2O)[C@@H](C)CC[C@@H]4[C@@H](C)C[C@H]3C=C(C)C)C1O (stereo not given in full)",
    "TGI": "> 100 µM"
  },
  {
    "Compound": "COc1cc2c(cc1OC)[C@]1(O)C(=O)c3ccc4c(c3O[C@@H]1CO2)C[C@H](C(C)(C)O)O4",
    "TGI": "> 100 µM"
  },
  {
    "Compound": "COc1cc2c(cc1OC)C(C1(O)CCCCC1)NCC2 (stereo not given)",
    "TGI": "> 100 µM"
  }
]

q: What measured TGI goes with O=S(O)CCCCSSCCCCS(=O)(O)=S ?
a: > 100 µM

q: What measured TGI goes with CC1(C)[C@@H]2C[C@H]1C(Cc1ccccc1C[C@H]1c3cc(-c4ccccn4)ncc3[C@H]3C[C@@H]1C3(C)C)c1cc(-c3ccccn3)ncc12 (stereo not given in full) ?
a: > 90.3 µM

----------
System: U251 CNS
Test: NCI tumour cell line growth inhibition, 48 h
Quick reference: TGI of the listed items.

Please review the following examples before continuing.
[
  {
    "Molecule": "O=C(/C=C/c1ccccc1)c1ccc(O)c(CN2CCN(c3cc4c(cc3F)c(=O)c(C(=O)O)cn4C3CC3)CC2)c1",
    "TGI": "> 100 µM"
  },
  {
    "Molecule": "Cc1nnc2nc(-c3ccc(Cl)cc3Cl)cc(-c3ccc(Cl)cc3)n12",
    "TGI": "> 100 µM"
  },
  {
    "Molecule": "CNC(=S)N/N=C(\\C)c1ccc(OC)cc1O",
    "TGI": "> 100 µM"
  },
  {
    "Molecule": "O=C1c2ccccc2C(=O)N1C/C=N/NS(=O)(=O)c1ccc(Cl)cc1",
    "TGI": "> 100 µM"
  },
  {
    "Molecule": "C/C(=N/NC(=S)Nc1cccc(Cl)c1)c1cccc(/C(C)=N\\NC(=S)Nc2cccc(Cl)c2)n1",
    "TGI": "> 59.3 µM"
  }
]

q: What measured TGI goes with c1ccc(SCCP(CCP(c2ccccc2)c2ccccc2)c2ccccc2)cc1 (configuration not stated) ?
a: > 100 µM

q: What measured TGI goes with CCCN(CCC)c1ccc(C=O)c(OC)c1 ?
a: > 100 µM

q: What measured TGI goes with CCCCCCc1ccc(O)cc1O ?
a: > 100 µM

q: What measured TGI goes with O=S(O)CCCCSSCCCCS(=O)(O)=S ?
a: > 100 µM

q: What measured TGI goes with N#C/C(=C\N1CCNC1=S)C(=O)c1ccc2ccccc2c1 ?
a: > 100 µM

q: What measured TGI goes with C/C(=N\O)C(CN(C)C)C(c1ccccc1)c1c(O)c2ccccc2oc1=O (configuration not stated) ?
a: > 100 µM

q: What measured TGI goes with CC(C)(C)c1cc2c(OP(c3ccccc3)c3ccccc3)c(c1)Cc1cc(C(C)(C)C)cc(c1OP(c1ccccc1)c1ccccc1)Cc1cc(C(C)(C)C)cc(c1OP(c1ccccc1)c1ccccc1)Cc1cc(C(C)(C)C)cc(c1OP(c1ccccc1)c1ccccc1)C2 ?
a: > 50 µM

q: What measured TGI goes with COc1cc(C)c(N(C)C(=O)CN(C)C)cc1Nc1nc(Nc2cccc(F)c2C(N)=O)c2cc[nH]c2n1 ?
a: > 25 µM

q: What measured TGI goes with Cc1c(Cl)c(S(N)(=O)=O)cc(S(N)(=O)=O)c1NC(=O)c1ccc(Cl)cc1 ?
a: > 100 µM

q: What measured TGI goes with COC(=O)c1cc(Cl)ccc1NC(=O)C1CCCCC1 ?
a: > 100 µM

q: What measured TGI goes with C=CC1(C)/C(=N\O)C(C)(CC)C(=O)N1O (configuration not stated) ?
a: > 100 µM

q: What measured TGI goes with CC1(C)[C@@H]2C[C@H]1C(Cc1ccccc1C[C@H]1c3cc(-c4ccccn4)ncc3[C@H]3C[C@@H]1C3(C)C)c1cc(-c3ccccn3)ncc12 (some centres not stated) ?
a: > 28.8 µM
